Measured pKi of individual entries
- target.desc: human A2A AR (Homo sapiens, UniProt P29274)
- Construct: expressed in transfected cells; host or cells: CHO cells
- Sequence (P29274 whole entry): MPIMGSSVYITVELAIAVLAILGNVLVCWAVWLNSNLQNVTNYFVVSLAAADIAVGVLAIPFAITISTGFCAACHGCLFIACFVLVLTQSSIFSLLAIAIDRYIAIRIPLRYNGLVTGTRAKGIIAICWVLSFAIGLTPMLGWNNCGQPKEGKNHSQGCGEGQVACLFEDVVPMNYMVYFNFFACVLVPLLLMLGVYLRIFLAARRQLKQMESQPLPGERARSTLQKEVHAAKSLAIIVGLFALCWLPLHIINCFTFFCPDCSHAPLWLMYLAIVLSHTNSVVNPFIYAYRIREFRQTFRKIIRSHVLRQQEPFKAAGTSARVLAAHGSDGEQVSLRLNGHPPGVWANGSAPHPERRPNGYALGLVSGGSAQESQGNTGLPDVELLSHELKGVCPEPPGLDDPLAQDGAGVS
- assay.text: Radioligand binding assay at human A2A AR vs. [^3H]MSX-2
- setup.conditions: CHO cell membranes, n = 3, read-out: Ki ± SEM, A2A vs. [^3H]MSX-2
- Method: Membrane preparations and radioligand binding assays at rat A1 (rat brain cortex) and rat A2A ARs (rat brain striatum) were performed as previously described (Ozola et al., [2003]; Alnouri et al., [2015]). […] The synthesized tetrahydropyrazino[2,1-f ]purinediones 13–20 were evaluated in radioligand binding assays for their affinity to A1 ARs of rat brain cortical membrane and to A2A ARs of rat brain striatal membrane preparations. […]
Quick note: pKi values are minus log10 of concentrations in mol/L.

compound	pKi
C#CCn1c(=O)c2c(nc3n2CCN(c2cccc(OC)c2)C3)n(CC)c1=O [Compound 20c]	6.54
CCn1c(=O)c2c(nc3n2CCN(Cc2cc(Cl)ccc2Cl)C3)n(C)c1=O [Compound 14j]	6.04
CCn1c(=O)c2c(nc3n2CCN(Cc2cc(Br)ccc2F)C3)n(C)c1=O [Compound 14o]	5.77
CCn1c(=O)c2c(nc3n2CCN(Cc2cccc(C(F)(F)F)c2F)C3)n(C)c1=O [Compound 14l]	5.69

What value of pKi has been reported for the following compound? CCn1c(=O)c2c(nc3n2CCN(Cc2cccc(C(F)(F)F)c2)C3)n(C)c1=O [Compound 14e]
5.75

Requested read-out: pKi. Entry: CCn1c(=O)c2c(nc3n2CCN(Cc2cc(Cl)cc(Cl)c2)C3)n(CC)c1=O [Compound 15m]
6.20

Value lookup for pKi; key = C#CCn1c(=O)c2c(nc3n2CCN(Cc2ccc(Cl)c(Cl)c2)C3)n(C)c1=O [Compound 19a]
5.80

Name the recorded pKi for C#CCn1c(=O)c2c(nc3n2CCN(Cc2ccccc2)C3)n(CC)c1=O [Compound 20e] .
6.55

What does the data say about its pKi? Entry: CCn1c(=O)c2c(nc3n2CCN(Cc2cc(F)c(F)c(F)c2)C3)n(CC)c1=O [Compound 15r]
5.39

Reported pKi for CCn1c(=O)n(C)c(=O)c2c1nc1n2CCN(Cc2ccc(Cl)c(Cl)c2)C1 [Compound 16a] : what is it?
5.79

Bench note: what pKi did CCn1c(=O)c2c(nc3n2CCN(Cc2cc(F)cc(C(F)(F)F)c2)C3)n(C)c1=O [Compound 14p] show?
6.30

Could you share which pKi value was measured for CCn1c(=O)c2c(nc3n2CCN(Cc2ccccc2Br)C3)n(C)c1=O [Compound 14a] ?
6.30

Quick one: pKi for CCn1c(=O)c2c(nc3n2CCN(Cc2cc(Br)ccc2F)C3)n(CC)c1=O [Compound 15l] ?
6.22

# pKi lookup, item CCn1c(=O)c2c(nc3n2CCN(Cc2cccc(Br)c2)C3)n(CC)c1=O [Compound 15d]
5.98

----------
- target.desc: recombinant human MAO-A (Homo sapiens)
- Construct: purchased Sigma-Aldrich M7316; host or cells: baculovirus-infected insect cells
- Sequence (P21397 whole entry): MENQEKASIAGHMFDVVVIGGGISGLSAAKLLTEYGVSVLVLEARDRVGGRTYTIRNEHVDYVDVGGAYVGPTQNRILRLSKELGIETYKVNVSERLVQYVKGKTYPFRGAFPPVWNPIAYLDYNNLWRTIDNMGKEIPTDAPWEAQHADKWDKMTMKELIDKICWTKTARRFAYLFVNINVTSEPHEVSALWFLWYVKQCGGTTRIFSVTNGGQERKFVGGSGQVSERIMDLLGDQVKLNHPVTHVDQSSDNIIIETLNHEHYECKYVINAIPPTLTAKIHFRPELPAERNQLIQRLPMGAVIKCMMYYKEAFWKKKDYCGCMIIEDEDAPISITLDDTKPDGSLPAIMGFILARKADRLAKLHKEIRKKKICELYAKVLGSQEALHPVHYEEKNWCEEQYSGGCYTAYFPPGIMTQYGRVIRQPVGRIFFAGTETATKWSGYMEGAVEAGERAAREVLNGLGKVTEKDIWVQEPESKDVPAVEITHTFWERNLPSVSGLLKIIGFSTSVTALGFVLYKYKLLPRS
- assay.text: Monoamine oxidase assay (Amplex Red), MAO-A
- Assay type: biochemical
- setup.conditions: at 10,000 nM; read-out: % inhibition at indicated concentration, Human MAO-A
Listed here are compounds together with their documented inhibition at 10 µM.
Answer format: numeric, % implied, no suffix.

Bench note: what inhibition at 10 µM did CCn1c(=O)n(C)c(=O)c2c1nc1n2CCN(Cc2ccc(Cl)c(Cl)c2)C1 [Compound 16a] show?
6

Give its inhibition at 10 µM value. Item: CCn1c(=O)c2c(nc3n2CCN(Cc2cc(C(F)(F)F)cc(C(F)(F)F)c2)C3)n(C)c1=O [Compound 14q]
8

Please report the recorded inhibition at 10 µM for CCn1c(=O)c2c(nc3n2CCN(Cc2cc(Br)ccc2F)C3)n(CC)c1=O [Compound 15l] .
8

What value of inhibition at 10 µM has been recorded for this entry: CCn1c(=O)n(C)c(=O)c2c1nc1n2CCN(Cc2cc(Cl)cc(Cl)c2)C1 [Compound 16b]
8

Given CCn1c(=O)c2c(nc3n2CCN(Cc2cc(C(F)(F)F)ccc2F)C3)n(CC)c1=O [Compound 15j] , state its recorded inhibition at 10 µM.
7

Please look up its inhibition at 10 µM: Cn1c(=O)c2c(nc(C=Cc3cccc(Cl)c3)n2C)n(C)c1=O
23
